Where do the numbers come from? From PubChem BioAssay (EPA / NIEHS).

# system.under.test: rabbit Imidazoline 2 Central (I2C), CKB (gene 100009085) (UniProt P00567)
# Sequence (P00567 whole entry, looked up): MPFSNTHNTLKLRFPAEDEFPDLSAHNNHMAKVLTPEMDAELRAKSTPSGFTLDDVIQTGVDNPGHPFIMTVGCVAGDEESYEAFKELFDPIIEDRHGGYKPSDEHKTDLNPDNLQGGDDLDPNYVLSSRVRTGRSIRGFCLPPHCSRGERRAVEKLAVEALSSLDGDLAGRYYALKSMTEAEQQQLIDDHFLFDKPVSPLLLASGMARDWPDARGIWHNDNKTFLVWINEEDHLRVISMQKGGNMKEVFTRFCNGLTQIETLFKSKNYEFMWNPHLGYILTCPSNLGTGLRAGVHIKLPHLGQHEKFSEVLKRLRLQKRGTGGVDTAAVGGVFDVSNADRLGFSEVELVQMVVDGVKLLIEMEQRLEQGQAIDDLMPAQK
# protocol: NVS_ENZ_rabI2C: NovaScreen (NVS) Enzymatic Assay for rabbit Imidazoline 2 Central (I2C) (AID 2283228)
Results filed as inconclusive are left out. The source made the active and inactive calls. How the source made its calls: active means hit-call score of the fitted dose curve at least 0.9, where 1 is the maximum; inconclusive means response in the unintended direction; inactive means score below 0.9.
Labels: active, inactive

{"columns": ["compound.structure", "class.name"],
 "data": [
  ["O=[N+]([O-])/N=C1\\NCCN1Cc1ccc(Cl)nc1", "active"],
  ["O=C(Nc1ccccc1)Nc1cnns1", "inactive"],
  ["O=[N+]([O-])c1c(Cl)c(Cl)c(Cl)c(Cl)c1Cl", "inactive"],
  ["CNC(=O)Oc1cccc(N=CN(C)C)c1", "active"],
  ["CCCN(CCOc1c(Cl)cc(Cl)cc1Cl)C(=O)n1ccnc1", "inactive"]
]}
